Values were extracted from PubChem BioAssay.

Test: adipocyte viability effects, profiling panel, cell-based, 3T3-L1 adipocytes, calcein-AM fluorescence, 48 h, basal (AID 1163); further: test concentration not given here
Settings: 3T3-L1 adipocytes viability, higher = more signal
Entries and their z-score values follow.
Output spec: single numeric token, no unit.

Look at this compound and give its reported z-score. `COC(=O)C1=C(C)N(Cc2ccccc2)[C@]23O[C@](C(=O)OC)(C(=O)N2[C@@H]1c1ccccc1)C(C(=O)OC)=C3C(=O)OC`
1.48

Repeat with `CCc1cc2c(nc1CC)CCN(CCC(C)=NO[C@H](C)c1cn([C@H](CO)Cc3ccccc3)nn1)C2`
1.22

Repeat with `CC(C)[C@@H](OCc1ccccc1)[C@H](C)C=NOC[C@@H](O)COCc1ccco1`
0.0863

Repeat with `CC(C)CON=C1[C@H]2CCn3c(=O)n(Cc4cc5c(cc4Cl)OCO5)c(=O)n3[C@H]2[C@H](O)[C@@H]2O[C@H]12`
0.719

Repeat with `COc1cc(O)c(C(=O)C=Cc2ccc3c(c2)OCO3)c(OC)c1`
0.154

Repeat with COC(=O)[C@H](C)NC(=O)CCC1CC(OC(=O)NCc2ccc3c(c2)OCO3)CC2(CCCC(COC(=O)NCc3cccc(C(F)(F)F)c3)O2)O1 (stereo partly drawn)
-0.0811

Repeat with `COC(=O)CC=C[C@@H](C)[C@@H](C=NOCC[C@@H]1C=C[C@H](OC(C)=O)[C@@H](COC(C)=O)O1)OC`
-0.0264

More entries:
Look at this compound and give its reported z-score. `COc1cccc([C@@H]2Oc3ccc(OC)cc3C(=O)[C@H]2O)c1`
0.856

----------
Biological target: Luciferin 4-monooxygenase (Photinus pyralis) (UniProt P08659)
Sequence (P08659 whole entry, looked up): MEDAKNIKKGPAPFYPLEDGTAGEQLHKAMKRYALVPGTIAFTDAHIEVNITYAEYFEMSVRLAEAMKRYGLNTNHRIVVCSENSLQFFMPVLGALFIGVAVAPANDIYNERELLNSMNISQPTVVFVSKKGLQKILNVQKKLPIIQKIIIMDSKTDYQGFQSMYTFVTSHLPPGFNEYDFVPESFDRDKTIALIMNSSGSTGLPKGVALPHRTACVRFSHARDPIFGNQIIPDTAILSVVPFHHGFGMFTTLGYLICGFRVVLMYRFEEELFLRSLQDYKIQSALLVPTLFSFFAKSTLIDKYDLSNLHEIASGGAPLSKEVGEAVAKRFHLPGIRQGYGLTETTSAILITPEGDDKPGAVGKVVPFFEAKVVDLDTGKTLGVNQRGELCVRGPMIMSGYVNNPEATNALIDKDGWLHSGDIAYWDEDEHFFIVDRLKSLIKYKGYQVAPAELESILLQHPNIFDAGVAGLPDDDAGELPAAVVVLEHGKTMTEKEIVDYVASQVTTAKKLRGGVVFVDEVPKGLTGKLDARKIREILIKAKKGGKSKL
Assay: firefly luciferase enzyme inhibitors, primary screen, biochemical, luminescence, purified enzyme, 2006 set (AID 1141);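 further: cell-free assay with purified firefly luciferase at 100 ng per well in PBS; test concentration not given here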
Conditions: SteadyGlo luminescence, 30 min, higher = more signal, called active from +8 up or from −8 down
Entries and their z-score values follow.
Output spec: single numeric token, no unit.

Item: `COc1cccc([C@H]2Oc3ccc(OC)cc3C(=NO[C@H](C)c3cn([C@H](CO)Cc4ccccc4)nn3)[C@@H]2O)c1` Test system: Luciferin 4-monooxygenase (Photinus pyralis) (UniProt P08659) Read-out: z-score Value: ?
0.417

More entries:
Item: `CC(=O)OC[C@H]1O[C@H](CCON=C2[C@H]3CCn4c(=O)n(-c5ccccc5)c(=O)n4[C@H]3[C@H](O)[C@@H]3O[C@H]23)C=C[C@@H]1OC(C)=O` Test system: Luciferin 4-monooxygenase (Photinus pyralis) (UniProt P08659) Read-out: z-score Value: ?
0.416

Repeat with `C=COC[C@@H]1CN2[C@@H](CC[C@@H](C)[C@@H]2c2ccc(Br)cc2)C(=O)O1`
0.49

Repeat with COC(=O)[C@H](C)NC(=O)CCC1CC(OC(=O)NCc2ccc3c(c2)OCO3)CC2(CCCC(COC(=O)NCC(c3ccccc3)c3ccccc3)O2)O1 (some centres not stated)
0.834

Repeat with `COCOc1ccc(Br)cc1C(=O)[C@@H]1O[C@H]1c1cccc(OC)c1`
-0.54

Repeat with `CO[C@H]1COC(=O)CCC[C@@H](C)[C@H](OC)COC(=O)[C@@H](C)NC(=O)CC=C[C@@H]1C`
0.624

Repeat with `C[C@@H](c1ccccc1)N1C(=O)[C@H]2[C@H]3[C@H](O)[C@H](O)CC(=O)[C@H]3CC[C@H]2C1=O`
-1.36
